Please provide measured hepatocyte CLint for the entries that follow.
assay: Intrinsic clearance in human hepatocytes measured per 10^6 cells; type: ADME, cell-based, Hepatocyte; details: read-out: CLH

// each compound listed below needs its hepatocyte CLint
1. CC(C)(C(=O)O)c1ccc(C[C@@]2(C)C[C@H](c3cccc(Cl)c3)[C@@H](c3ccc(Cl)cc3)N([C@H](CS(=O)(=O)C(C)(C)C)C3CC3)C2=O)nc1
2. Cc1nc(C[C@@]2(C)C[C@H](c3cccc(Cl)c3)[C@@H](c3ccc(Cl)cc3)N([C@H](CS(=O)(=O)C(C)(C)C)C3CC3)C2=O)ccc1C(=O)O

result:
1: < 0.1 µL/min/1e6 cells; 2: 26 µL/min/1e6 cells

query: What does the data say about its hepatocyte CLint? Entry: CC(C)(C)S(=O)(=O)C[C@H](C1CC1)N1C(=O)[C@@](C)(Cc2ncc(C(=O)O)s2)C[C@H](c2cccc(Cl)c2)[C@H]1c1ccc(Cl)cc1
result: 8.7 µL/min/1e6 cells

----------
assay: Intrinsic clearance in human hepatocytes measured per 10^6 cells; format: ADME, cell-based, Hepatocyte; conditions: read-out: CLH
Please provide measured hepatocyte CLint for the entries that follow.
Give bare numbers, in µL/min/1e6 cells.

Answered cases to consult:
query: What does the data say about its hepatocyte CLint? Entry: CC(C)(C)S(=O)(=O)C[C@H](C1CC1)N1C(=O)[C@@](C)(Cc2nnc(CC(=O)O)[nH]2)C[C@H](c2cccc(Cl)c2)[C@H]1c1ccc(Cl)cc1
result: 10

query: What does the data say about its hepatocyte CLint? Entry: CC(C)(C)S(=O)(=O)C[C@H](C1CC1)N1C(=O)[C@@](C)(Cc2ncc(CC(=O)O)s2)C[C@H](c2cccc(Cl)c2)[C@H]1c1ccc(Cl)c(F)c1
result: 5.5

Continuing:
query: What does the data say about its hepatocyte CLint? Entry: CC(C)(C)S(=O)(=O)C[C@H](C1CC1)N1C(=O)[C@@](C)(Cc2ccc(CC(=O)O)cn2)C[C@H](c2cccc(Cl)c2)[C@H]1c1ccc(Cl)cc1
result: 3.4

----------
test: Volume of distribution at steady state in rat at 0.5 mg/kg, iv; type: ADME, organism-based; set-up: dose 0.5 mg/kg, route intravenous; settings: in vivo, read-out: Vdss
Please provide measured Vd for the entries that follow.
Quote the value and follow it with the unit of measurement.

Answered cases to consult:
query: What does the data say about its Vd? Entry: CC(C)(C)S(=O)(=O)C[C@H](C1CC1)N1C(=O)[C@@](C)(Cc2ncc(CC(=O)O)s2)C[C@H](c2cccc(Cl)c2)[C@H]1c1ccc(Cl)c(F)c1
result: 0.27 L/kg

query: What does the data say about its Vd? Entry: CC(C)(C)S(=O)(=O)C[C@H](C1CC1)N1C(=O)[C@@](C)(Cc2ncc(C(=O)O)s2)C[C@H](c2cccc(Cl)c2)[C@H]1c1ccc(Cl)cc1
result: 0.18 L/kg

query: What does the data say about its Vd? Entry: CC(C)(C)S(=O)(=O)C[C@H](C1CC1)N1C(=O)[C@@](C)(Cc2ncc(CC(=O)O)s2)C[C@H](c2cccc(Cl)c2)[C@H]1c1ccc(Cl)cc1
result: 0.74 L/kg

query: What does the data say about its Vd? Entry: CC(C)(C)S(=O)(=O)C[C@H](C1CC1)N1C(=O)[C@@](C)(Cc2ncc(C(=O)O)s2)C[C@H](c2cccc(Cl)c2)[C@H]1c1ccc(Cl)c(F)c1
result: 0.41 L/kg

Turning now to a further record.
query: What does the data say about its Vd? Entry: CC(C)(C)S(=O)(=O)C[C@H](C1CC1)N1C(=O)[C@@](C)(Cc2ccc(C(=O)O)cn2)C[C@H](c2cccc(Cl)c2)[C@H]1c1ccc(Cl)cc1
result: 0.41 L/kg

----------
assay: Clearance in mouse at 0.5 mg/kg, iv; assay type: ADME, organism-based; design: dose 0.5 mg/kg, route intravenous; details: in vivo
Measurement Name: clearance (mL/min/kg)
Answers are plain numbers, in mL/min/kg.

Answered cases to consult:
query: What does the data say about its clearance? Entry: CC(C)(C)S(=O)(=O)C[C@H](C1CC1)N1C(=O)[C@@](C)(Cc2ncc(CC(=O)O)s2)C[C@H](c2cccc(Cl)c2)[C@H]1c1ccc(Cl)c(F)c1
result: 2.5

query: What does the data say about its clearance? Entry: CC(C)(C)S(=O)(=O)C[C@H](C1CC1)N1C(=O)[C@@](C)(Cc2ncc(C(=O)O)s2)C[C@H](c2cccc(Cl)c2)[C@H]1c1ccc(Cl)c(F)c1
result: 2.5

query: What does the data say about its clearance? Entry: CC(C)(C)S(=O)(=O)C[C@H](C1CC1)N1C(=O)[C@@](C)(Cc2ncc(C(=O)O)s2)C[C@H](c2cccc(Cl)c2)[C@H]1c1ccc(Cl)cc1
result: 5.83

query: What does the data say about its clearance? Entry: CC(C)(C)S(=O)(=O)C[C@H](C1CC1)N1C(=O)[C@@](C)(Cc2ccc(C(=O)O)cn2)C[C@H](c2cccc(Cl)c2)[C@H]1c1ccc(Cl)cc1
result: 3.83

Continuing:
query: What does the data say about its clearance? Entry: CC(C)(C)S(=O)(=O)C[C@H](C1CC1)N1C(=O)[C@@](C)(Cc2ncc(CC(=O)O)s2)C[C@H](c2cccc(Cl)c2)[C@H]1c1ccc(Cl)cc1
result: 7.17

----------
assay: Volume of distribution at steady state in mouse at 0.5 mg/kg, iv; assay type: ADME, organism-based; design: dose 0.5 mg/kg, route intravenous; settings: in vivo, read-out: Vdss
Measurement Name: Vd (L/kg)
Give bare numbers, in L/kg.

Answered cases to consult:
query: What does the data say about its Vd? Entry: CC(C)(C)S(=O)(=O)C[C@H](C1CC1)N1C(=O)[C@@](C)(Cc2ncc(C(=O)O)s2)C[C@H](c2cccc(Cl)c2)[C@H]1c1ccc(Cl)cc1
result: 0.67

query: What does the data say about its Vd? Entry: CC(C)(C)S(=O)(=O)C[C@H](C1CC1)N1C(=O)[C@@](C)(Cc2ncc(C(=O)O)s2)C[C@H](c2cccc(Cl)c2)[C@H]1c1ccc(Cl)c(F)c1
result: 0.53

query: What does the data say about its Vd? Entry: CC(C)(C)S(=O)(=O)C[C@H](C1CC1)N1C(=O)[C@@](C)(Cc2ncc(CC(=O)O)s2)C[C@H](c2cccc(Cl)c2)[C@H]1c1ccc(Cl)c(F)c1
result: 0.35

query: What does the data say about its Vd? Entry: CC(C)(C)S(=O)(=O)C[C@H](C1CC1)N1C(=O)[C@@](C)(Cc2ncc(CC(=O)O)s2)C[C@H](c2cccc(Cl)c2)[C@H]1c1ccc(Cl)cc1
result: 0.72

Continuing:
query: What does the data say about its Vd? Entry: CC(C)(C)S(=O)(=O)C[C@H](C1CC1)N1C(=O)[C@@](C)(Cc2ccc(C(=O)O)cn2)C[C@H](c2cccc(Cl)c2)[C@H]1c1ccc(Cl)cc1
result: 0.57

----------
experiment: Half life in rat at 0.5 mg/kg, iv; type: ADME, organism-based; design: dose 0.5 mg/kg, route intravenous; conditions: in vivo
Use 1.0 when the recorded half-life is no lower than 2 h; use 0.0 when it is lower.

query: Check this compound for half-life at or above 2 h: CC(C)(C)S(=O)(=O)C[C@H](C1CC1)N1C(=O)[C@@](C)(Cc2ncc(C(=O)O)s2)C[C@H](c2cccc(Cl)c2)[C@H]1c1ccc(Cl)c(F)c1
result: 1.0

query: Check this compound for half-life at or above 2 h: CC(C)(C)S(=O)(=O)C[C@H](C1CC1)N1C(=O)[C@@](C)(Cc2ncc(CC(=O)O)s2)C[C@H](c2cccc(Cl)c2)[C@H]1c1ccc(Cl)cc1
result: 0.0

query: Check this compound for half-life at or above 2 h: CC(C)(C)S(=O)(=O)C[C@H](C1CC1)N1C(=O)[C@@](C)(Cc2ncc(CC(=O)O)s2)C[C@H](c2cccc(Cl)c2)[C@H]1c1ccc(Cl)c(F)c1
result: 1.0

query: Check this compound for half-life at or above 2 h: CC(C)(C)S(=O)(=O)C[C@H](C1CC1)N1C(=O)[C@@](C)(Cc2ccc(C(=O)O)cn2)C[C@H](c2cccc(Cl)c2)[C@H]1c1ccc(Cl)cc1
result: 0.0

query: Check this compound for half-life at or above 2 h: CC(C)(C)S(=O)(=O)C[C@H](C1CC1)N1C(=O)[C@@](C)(Cc2ncc(C(=O)O)s2)C[C@H](c2cccc(Cl)c2)[C@H]1c1ccc(Cl)cc1
result: 1.0

----------
experiment: Oral bioavailability in mouse at 5 mg/kg; assay type: ADME, organism-based; settings: in vivo
Please provide measured bioavailability for the entries that follow.
Answers are plain numbers, in %.

// each compound listed below needs its bioavailability
1. CC(C)(C)S(=O)(=O)C[C@H](C1CC1)N1C(=O)[C@@](C)(Cc2ncc(CC(=O)O)s2)C[C@H](c2cccc(Cl)c2)[C@H]1c1ccc(Cl)cc1
2. CC(C)(C)S(=O)(=O)C[C@H](C1CC1)N1C(=O)[C@@](C)(Cc2ccc(C(=O)O)cn2)C[C@H](c2cccc(Cl)c2)[C@H]1c1ccc(Cl)cc1
3. CC(C)(C)S(=O)(=O)C[C@H](C1CC1)N1C(=O)[C@@](C)(Cc2ncc(C(=O)O)s2)C[C@H](c2cccc(Cl)c2)[C@H]1c1ccc(Cl)c(F)c1

result:
[10, 60, 36]

// each compound listed below needs its bioavailability
1. CC(C)(C)S(=O)(=O)C[C@H](C1CC1)N1C(=O)[C@@](C)(Cc2ncc(C(=O)O)s2)C[C@H](c2cccc(Cl)c2)[C@H]1c1ccc(Cl)cc1
2. CC(C)(C)S(=O)(=O)C[C@H](C1CC1)N1C(=O)[C@@](C)(Cc2ncc(CC(=O)O)s2)C[C@H](c2cccc(Cl)c2)[C@H]1c1ccc(Cl)c(F)c1

result:
1: 18; 2: 56
